pest or weed control at 250 g/ha listing for selected compounds.
System: Avena fatua (AVEFA)
experiment: Glasshouse assay for herbicidal activity (pre- and post-emergence), percentage phytotoxicity
Format: in vivo
reported conditions: Avena fatua, pre-emergence, 480 h, Rate 250 g/ha; pre-emergence; assessed visually 20 DAA; 100%=total damage, 0%=no damage; read-out: Pre-emergence herbicidal activity (percentage phytotoxicity) AVEFA PRE

| compound | system tested | pest or weed control at 250 g/ha, % |
| --- | --- | --- |
| Cc1cc(-c2ncc(Cl)cc2F)cc(C)c1C1C(=O)CC(CC(=O)NCc2ccccc2F)C1=O (stereo not shown) [Compound A118] | Avena fatua (AVEFA) | 100 |
| C#CCNC(=O)CC1CC(=O)C(c2c(C)cc(C#CC)cc2C)C1=O (stereo not shown) [Compound A28] | Avena fatua (AVEFA) | 100 |
| CC#Cc1cc(C)c(C2C(=O)CC(CC(=O)NCCC(F)(F)F)C2=O)c(C)c1 (stereo not shown) [Compound A58] | Avena fatua (AVEFA) | 100 |
| Cc1cc(-c2cncnc2)cc(C)c1C1C(=O)CC(CC(=O)NCc2ncccc2Cl)C1=O (stereo not shown) [Compound A143] | Avena fatua (AVEFA) | 0 |

* * *

pest or weed control at 250 g/ha listing for selected compounds.
Test system: Lolium perenne (LOLPE)
experiment: Glasshouse assay for herbicidal activity (pre- and post-emergence), percentage phytotoxicity
Format: in vivo
reported conditions: Lolium perenne, pre-emergence, 480 h, 250 g/ha; pre-emergence; 20 DAA; visual assessment (100%=total damage, 0%=no damage); read-out: Pre-emergence herbicidal activity (percentage phytotoxicity) LOLPE PRE

| compound | pest or weed control at 250 g/ha |
| --- | --- |
| Cc1cc(C)c(C2C(=O)CC(CC(=O)NCC3CC3(F)F)C2=O)c(C)c1 (centres unmarked) | 100% |
| Cc1cc(C)c(C2C(=O)CC(CC(=O)NC3(C(F)(F)F)CC3)C2=O)c(C)c1 (centres unmarked) | 70% |
| COCC(C)NC(=O)CC1CC(=O)C(c2c(C)cc(-c3ncc(Cl)cc3F)cc2C)C1=O (centres unmarked) | 100% |
| COCC(C)NC(=O)CC1CC(=O)C(c2c(C)cc(Br)cc2C)C1=O (centres unmarked) | 80% |
| Cc1cc(C)c(C2C(=O)CC(CC(=O)NCCF)C2=O)c(C)c1 (centres unmarked) | 90% |
| Cc1cc(C)c(C2C(=O)CC(CC(=O)NCC#CCCl)C2=O)c(C)c1 (centres unmarked) | 80% |
| C=CCC(C)(C)NC(=O)CC1CC(=O)C(c2c(C)cc(C)cc2C)C1=O (centres unmarked) | 60% |
| Cc1cc(C)c(C2C(=O)CC(CC(=O)NCc3ccccc3C)C2=O)c(C)c1 (centres unmarked) | 90% |

* * *

pest or weed control at 250 g/ha listing for selected molecules.
System: Lolium perenne (LOLPE)
experiment: Glasshouse assay for herbicidal activity (pre- and post-emergence), percentage phytotoxicity
Assay type: in vivo
reported conditions: Lolium perenne, pre-emergence, 480 h, pre-emergence, 250 g/ha, 20 DAA, visual score (100%=total damage; 0%=no damage); read-out: LOLPE PRE herbicidal activity (percentage phytotoxicity)

| molecule | uom | pest or weed control at 250 g/ha |
| --- | --- | --- |
| COc1ccc(C(=O)OC2=C(c3c(C)cc(-c4ncc(Cl)cn4)cc3C)C(=O)C(CC(=O)NC(C)(C)C)C2)cc1 (centres unmarked) [Compound P1] | % | 100 |
| CCCCCCCNC(=O)CC1CC(=O)C(c2c(C)cc(C)cc2C)C1=O (centres unmarked) | % | 80 |
| C=CCNC(=O)CC1CC(=O)C(c2c(C)cc(C)cc2C)C1=O (centres unmarked) | % | 100 |
| Cc1cc(-c2ncc(Cl)cc2Cl)cc(C)c1C1C(=O)CC(CC(=O)NC(C)(C)C)C1=O (centres unmarked) | % | 80 |
| Cc1cc(C)c(C2C(=O)CC(CC(N)=O)C2=O)c(C)c1 (centres unmarked) | % | 100 |
| C#CC(C)N(C)C(=O)CC1CC(=O)C(c2c(C)cc(C)cc2C)C1=O (single isomer, unassigned) | % | 90 |
| COCCOCCCNC(=O)CC1CC(=O)C(c2c(C)cc(C)cc2C)C1=O (centres unmarked) | % | 90 |
| Cc1cc(-c2nccs2)cc(C)c1C1C(=O)CC(CC(=O)NC(C)(C)C)C1=O (centres unmarked) | % | 60 |
